System: IL-6 levels in human whole blood stimulated with a TLR2 agonist
Test: IRAK4 Whole Blood Assay (lipoteichoic acid/TLR2-stimulated IL-6)
Assay type: cell-based
Conditions: Homo sapiens, lipoteichoic acid 10 μg/mL, IL-6 readout
Experimental: Human whole blood containing the anti-coagulant ACD-A was plated in 384-well plate (25 μL/well) and incubated with compounds for 60 minutes at 37° C. in a 5% CO2 incubator. The blood was stimulated with a TLR2 agonist, 10 μg/mL final concentration of lipoteichoic acid (Invivogen, San Diego, Calif.) in 25 μL RPMI (Gibco) for 5 hours in a 5% CO2 incubator. […] Supernatants were harvested and analyzed for IL-6 levels by Flow Cytometry beads assay (BD Biosciences, San Jose, Calif.).
pEC50: −log10 of the molar value.
quantity: pEC50

Recorded pEC50, per entry:
> print(dat)
                                   compound  recorded.measurement
1  CC(C)(O)CCNC(=O)c1cnc(-c2cnc3cc(Cl)cnn23)cc1NC1COC1                  6.66
2  CC(C)Nc1cc(-c2cnn3cc(Cl)cnc23)ncc1C(=O)NC[C@@H](F)C(C)(C)O                  6.40
3  CC(C)(F)[C@H](F)CNC(=O)c1cnc(-c2cnc3cc(Cl)cnn23)cc1NC1COC1                  6.31
4  CC(C)(O)[C@H](F)CNC(=O)c1cnc(-c2cnc3cc(Cl)cnn23)cc1NCCC(F)F                  6.01
5  CC(C)(O)[C@H](F)CNC(=O)c1cnc(-c2cnn3cc(Cl)cnc23)cc1Nc1cnn(C2CC2)c1                  6.89

(I) CC(C)(O)[C@H](F)CNC(=O)c1cnc(-c2cnn3cc(Cl)cnc23)cc1NC1CCC1
(II) CC(C)(O)[C@H](F)CNC(=O)c1cnc(-c2cnc3cc(C(F)F)cnn23)cc1NC1COC1
(Q) I'd appreciate it if you could identify which of I and II has the greater pEC50. // return label of chosen record
(A) II

====

Target: IRAK4 (Homo sapiens (Human), UniProt Q9NWZ3)
Sequence (Q9NWZ3 whole entry): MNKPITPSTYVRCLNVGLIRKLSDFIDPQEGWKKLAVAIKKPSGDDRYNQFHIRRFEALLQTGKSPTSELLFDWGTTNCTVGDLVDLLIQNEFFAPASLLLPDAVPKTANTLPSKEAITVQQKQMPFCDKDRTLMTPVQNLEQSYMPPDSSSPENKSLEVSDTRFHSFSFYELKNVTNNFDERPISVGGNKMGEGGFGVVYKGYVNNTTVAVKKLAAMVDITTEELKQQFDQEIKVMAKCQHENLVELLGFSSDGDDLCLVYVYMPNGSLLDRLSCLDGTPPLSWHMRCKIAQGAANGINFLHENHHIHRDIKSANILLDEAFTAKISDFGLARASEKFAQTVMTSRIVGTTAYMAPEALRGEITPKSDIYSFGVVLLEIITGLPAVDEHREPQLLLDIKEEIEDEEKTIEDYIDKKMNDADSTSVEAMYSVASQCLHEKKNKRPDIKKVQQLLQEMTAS
Assay: IRAK4 Inhibition Assay
Assay type: biochemical
Settings: ATP 500 μM; IRAK4 0.6 nM
quantity: IC50 (nM)

Recorded IC50, per entry:
> print(dat)
                                   compound  unit.annotation  recorded.measurement
1  CC(C)(O)[C@H](F)CNC(=O)c1cnc(-c2cnn3cc(C#N)cnc23)cc1NC1COC1 [Example 99]               nM                     4
2  C[C@@H](CF)Nc1cc(-c2cnc3cc(C#N)cnn23)ncc1C(=O)NCCC(C)(C)O [Example 221]               nM                    14
3  C[C@@H](CO)Nc1cc(-c2cnn3cc(Cl)cnc23)ncc1C(=O)NC[C@@H](F)C(C)(C)O [Example 31]               nM                     7
4  CC(C)Nc1cc(-c2cnn3cc(Cl)cnc23)ncc1C(=O)NCCC1(O)CCC(C)(O)CC1 (centres unmarked) [Example 55]               nM                     9
5  CC(C)(O)[C@H](F)CNC(=O)c1cnc(-c2cnc3ccc(NCCO)nn23)cc1NC1COC1 [Example 140]               nM                     6
6  CC(C)(O)[C@H](F)CNC(=O)c1cnc(-c2cnn3cc(Cl)cnc23)cc1N[C@@H]1CCN(c2ncc(F)cn2)C1 [Example 36]               nM                     5
7  CC(C)(O)[C@H](F)CNC(=O)c1cnc(-c2cnn3cc(C#N)cnc23)cc1N[C@@H]1CCN(c2cncnc2)C1 [Example 119]               nM                     9
8  CNC(=O)[C@H]1CC[C@H](NC(=O)c2cnc(-c3cnn4cc(Cl)cnc34)cc2NC(C)C)CC1 [Example 27]               nM                     7

(a) CC(C)Nc1cc(-c2cnn3cc(Cl)cnc23)ncc1C(=O)N[C@H]1CC[C@H](NC(=O)[C@H](C)O)CC1 [Example 49]
(b) Cn1cc(Nc2cc(-c3cnn4cc(C#N)cnc34)ncc2C(=O)NC[C@@H](F)C(C)(C)O)cn1 [Example 240]
(c) CC(C)(O)[C@H](F)CNC(=O)c1cnc(-c2cnn3cc(Cl)cnc23)cc1N[C@@H]1COC[C@H]1O [Example 42]
(d) CC[C@H](O)CNc1cc(-c2cnn3cc(Cl)cnc23)ncc1C(=O)NC[C@@H](F)C(C)(C)O [Example 81]
(e) CC(C)(O)[C@H](F)CNC(=O)c1cnc(-c2cnn3cc(C#N)cnc23)cc1N[C@H]1COC[C@@H]1F (single isomer, unassigned) [Example 117]
(Q) Kindly order the items shown according to IC50, from the highest value down. Provide your answer as the labels ordered per the instruction.
(A) e, d, a, c, b
(e: 39 nM, d: 26 nM, a: 18 nM, c: 8 nM, b: 2 nM)

(I) CC(C)(O)[C@H](F)CNC(=O)c1cnc(-c2cnn3cc(C#N)cnc23)cc1NCC(F)F [Example 171]
(II) CC(C)Nc1cc(-c2cnn3cc(Cl)cnc23)ncc1C(=O)N[C@H]1CC[C@H](C(=O)NC(C)C)CC1 [Example 29]
(Q) I'd appreciate it if you could identify which of I and II has the greater IC50. // return label of chosen record
(A) II
(II: 24 nM, I: 6 nM)

(A) COC(=O)N[C@H]1CC[C@H](NC(=O)c2cnc(-c3cnc4cc(C#N)cnn34)cc2NC2(C)CC2)CC1 [Example 224]
(B) CC(C)(O)[C@H](F)CNC(=O)c1cnc(-c2cnn3cc(C#N)cnc23)cc1NC1CCOCC1 [Example 90]
(C) CC(C)(O)[C@H](F)CNC(=O)c1cnc(-c2cnc3cc(C#N)cnn23)cc1Nc1cnn(CC(F)(F)F)c1 [Example 276]
(D) COc1ccc2ncc(-c3cc(NC(C)C)c(C(=O)NC[C@@H](F)C(C)(C)O)cn3)n2n1 [Example 149]
(E) CC(C)Nc1cc(-c2cnn3cc(Cl)cnc23)ncc1C(=O)Nc1cnn(CC(=O)NC[C@@H](F)C(C)(C)O)c1 [Example 10]
(Q) Rank ascending by IC50. Provide your answer as the labels ordered per the instruction.
(A) C, B, A, D, E
(C: 2 nM, B: 4 nM, A: 7 nM, D: 18 nM, E: 99 nM)

(a) CC(C)(O)[C@H](F)CNC(=O)c1cnc(-c2cnn3cc(C#N)cnc23)cc1N[C@@H]1CCC[C@@H]1F [Example 105]
(b) CC(C)Nc1cc(-c2cnc3cc(C#N)cnn23)ncc1C(=O)NC[C@@H](F)C(C)(C)O [Example 145]
(Q) Compare reported IC50 values for a and b . Which is lower? // return label of chosen record
(A) b

====

Experiment: Caco Permeability Assay
Type: in vitro ADME
Settings: human, Caco-2, Caco-2 cells, 3 μM compound
quantity: Papp at 2 h, 3 µM (×10⁻⁶ cm/s)

Recorded Papp at 2 h, 3 µM, per entry:
> print(dat)
                                   molecule  recorded.measurement
1  CC(C)Nc1cc(-c2cnc3cc(C#N)cnn23)ncc1C(=O)NC[C@@H](F)C(C)(C)O [Example 145]                  12.3
2  CC(C)(F)[C@H](F)CNC(=O)c1cnc(-c2cnc3cc(C#N)cnn23)cc1Nc1cnn(CC(F)F)c1 [Example 258]                   5.9
3  CC(C)Nc1cc(-c2cnn3cc(C#N)cnc23)ncc1C(=O)NC[C@@H](F)C(C)(C)O [Example 87]                   5.6
4  CC(C)(O)[C@H](F)CNC(=O)c1cnc(-c2cnc3cc(Cl)cnn23)cc1NC1COC1 [Example 141]                   5.2

(P) CC(C)(O)CCNC(=O)c1cnc(-c2cnn3cc(Cl)cnc23)cc1Nc1cnn(CC(F)F)c1 [Example 253]
(Q) Cc1cnn2c(-c3cc(NC(C)C)c(C(=O)NC[C@@H](F)C(C)(C)O)cn3)cnc2c1 [Example 148]
(Q) I'd appreciate it if you could identify which of P and Q has the greater Papp at 2 h, 3 µM. // return label of chosen record
(A) Q

====

Molecular target: IRAK4 (Homo sapiens (Human), UniProt Q9NWZ3)
quantity: IC50 (nM)

Recorded IC50, per entry:
> print(dat)
                                   compound  unit.annotation  recorded.measurement
1  CC(C)(O)CNc1cc(-c2cnc3cccnn23)ncc1C(=O)NC[C@@H](F)C(C)(C)O [Example 138]               nM                    62
2  CC(C)(O)[C@H](F)CNC(=O)c1cnc(-c2cnn3cc(Cl)cnc23)cc1NC1CCCOC1 (single isomer, unassigned) [Example 4]               nM                    13

(A) CC(C)Nc1cc(-c2cnc3cc(C#N)cnn23)ncc1C(=O)NC1CCC(N(C)C)CC1 (stereo not shown) [Example 215]
(B) CC(C)(O)[C@H](F)CNC(=O)c1cnc(-c2cnn3cc(Cl)cnc23)cc1NC1CCCOC1 (single isomer, unassigned) [Example 3]
(Q) I'd appreciate it if you could identify which of A and B has the greater IC50. // return label of chosen record
(A) B
